assayTarget: human P2X7 receptor (Homo sapiens (Human), UniProt Q99572, R270H)
Sequence (Q99572 whole entry R270H): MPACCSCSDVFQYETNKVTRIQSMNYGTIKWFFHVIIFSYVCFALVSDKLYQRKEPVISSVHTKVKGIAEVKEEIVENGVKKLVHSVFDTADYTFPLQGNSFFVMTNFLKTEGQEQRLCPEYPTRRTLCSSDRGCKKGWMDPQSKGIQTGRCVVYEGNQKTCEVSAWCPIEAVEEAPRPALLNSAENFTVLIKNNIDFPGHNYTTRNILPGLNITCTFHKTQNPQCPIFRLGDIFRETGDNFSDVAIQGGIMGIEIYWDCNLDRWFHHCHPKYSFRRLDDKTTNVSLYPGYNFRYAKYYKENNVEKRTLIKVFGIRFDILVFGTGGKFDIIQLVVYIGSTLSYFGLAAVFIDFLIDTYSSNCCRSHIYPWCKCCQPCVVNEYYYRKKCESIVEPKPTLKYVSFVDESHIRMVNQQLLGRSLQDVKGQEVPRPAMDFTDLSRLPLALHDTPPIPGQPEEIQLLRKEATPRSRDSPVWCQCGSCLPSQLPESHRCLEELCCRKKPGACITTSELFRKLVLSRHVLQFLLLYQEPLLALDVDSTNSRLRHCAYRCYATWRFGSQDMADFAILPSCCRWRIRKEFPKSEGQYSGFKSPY
experimentSummary: Evaluation of a human P2X7 receptor inhibitory activity (Yo-Pro uptake, BzATP stimulation, FLIPR TETRA)
Format: cell-based
experimentalParameters: 1321N1 cells stably expressing human P2X7 receptor, Yo-Pro fluorescence
readoutLabel: pIC50
A value of pIC50 is the negative decimal logarithm of a concentration given in moles per litre.

molecule: Cc1ccc(CO)cc1NC1=NC(=O)N(C)C2=NCC(c3cc(F)c(F)c(F)c3)N12 (stereo not drawn) [Compound I-0161]
readoutLabel: pIC50
reported: 7.72

molecule: COCc1ccc(C)c(NC2=NC(=O)N(C)C3=NCC(c4cc(F)c(F)c(F)c4)N23)c1 (stereo not drawn) [Compound I-0201]
readoutLabel: pIC50
reported: 7.59

molecule: COc1nc(C)c(NC2=NC(=O)N(C)C3=NCC(c4cc(F)c(F)c(F)c4)N23)cc1F (stereo not drawn) [Compound I-0162]
readoutLabel: pIC50
reported: 7.72

molecule: Cc1ccc(C#N)cc1NC1=NC(=O)N(C)C2=NCC(c3cc(F)c(F)c(F)c3)N12 (stereo not drawn) [Compound I-0145]
readoutLabel: pIC50
reported: 7.72

molecule: CN1C(=O)N=C(NCc2ccccc2)N2C1=NCC2c1cc(F)c(F)c(F)c1 (stereo not drawn) [Compound I-0188]
readoutLabel: pIC50
reported: 8.12

In the following, a different molecule is considered.
IN: Quick one: pIC50 of Cc1cc2c(cc1NC1=NC(=O)N(C)C3=NCC(c4cc(F)c(F)c(F)c4)N13)COC2 (stereo not drawn) [Compound I-0164] ?
OUT: 7.55

====

assayTarget: human P2X7 receptor (Homo sapiens (Human), UniProt Q99572, R270H)
experimentSummary: Evaluation of a human P2X7 receptor inhibitory activity (Yo-Pro uptake, BzATP stimulation, FLIPR TETRA)
Type: cell-based
experimentalParameters: 1321N1 cells stably expressing human P2X7 receptor, Yo-Pro fluorescence, class symbols
pIC50: −log10 of the molar value.
Recorded pIC50, one value per entry.

Worked examples, 3 compounds total:
compound: Cc1ccc(OCCS(C)(=O)=O)cc1NC1=NC(=O)N(C)C2=NCC(c3cc(F)c(F)c(F)c3)N12 (stereo not shown)
pIC50: 7.00 to 8.00
//
compound: CCOc1ccc(/N=c2\[nH]c(=O)c(F)c3n2C(c2ccc(F)cc2)CC3)c(C)n1 (stereo not shown)
pIC50: > 8.00
//
compound: Cc1ccc(C(F)(F)CO)cc1NC1=NC(=O)N(C)C2=NCC(c3cc(F)c(F)c(F)c3)N12 (stereo not shown)
pIC50: 7.00 to 8.00

In the following, a different compound is considered.
IN: Quick one: pIC50 of COc1ccc(NC2=NC(=O)N(C)C3=NCC(c4ccc(F)c(F)c4)N23)c(C)c1 (stereo not shown) ?
OUT: 7.00 to 8.00

====

Recorded pIC50, one value per entry.
assayTarget: human P2X7 receptor (Homo sapiens (Human), UniProt Q99572, R270H)
experimentSummary: Evaluation of a human P2X7 receptor inhibitory activity (Yo-Pro uptake, BzATP stimulation, FLIPR TETRA)
Format: cell-based
experimentalParameters: 1321N1 cells stably expressing human P2X7 receptor, Yo-Pro fluorescence, class symbols
pIC50: −log10 of the molar value.

compound: Cc1cc2c(cc1Nc1nc(=O)cc3n1C(c1cc(F)cc(F)c1)CC3)COC2 (stereo not shown)
pIC50: > 8.00

compound: Cc1c(Cl)cccc1Nc1nc(=O)cc2n1C(c1ccccc1)CCC2 (stereo not shown)
pIC50: 7.00 to 8.00

compound: COc1ccc(NC2=NC(=O)N(C)C3=NCC(c4cc(F)cc(F)c4)N23)c(C)n1 (stereo not shown)
pIC50: 7.00 to 8.00

compound: COc1nc(C)c(Nc2nc(=O)cc3n2C(c2ccccc2)CC3)cc1C (stereo not shown)
pIC50: > 8.00

compound: COc1cc(/N=c2\[nH]c(=O)cc3n2C(c2cc(F)cc(F)c2)CC3)c(C)cc1F (stereo not shown)
pIC50: 7.00 to 8.00

IN: Quick one: pIC50 of Cc1cc2cnn(CCO)c2cc1NC1=NC(=O)N(C)C2=NCC(c3cc(F)c(F)c(F)c3)N12 (stereo not shown) ?
OUT: 7.00 to 8.00

IN: Quick one: pIC50 of CCc1c2n(c(Nc3ccc(OC)nc3C)nc1=O)C(c1cc(F)cc(F)c1)CC2 (stereo not shown) ?
OUT: 7.00 to 8.00

IN: Quick one: pIC50 of COc1ccc(Nc2nc(=O)cc3n2C(c2ccccc2)CC3)c(C)n1 (stereo not shown) ?
OUT: 7.00 to 8.00

IN: Quick one: pIC50 of Cc1ccc(C2=NCCO2)cc1NC1=NC(=O)N(C)C2=NCC(c3cc(F)c(F)c(F)c3)N12 (stereo not shown) ?
OUT: 7.00 to 8.00

IN: Quick one: pIC50 of Cc1c(Cl)cccc1Nc1nc(=O)cc2n1C(c1ccccc1)CO2 (stereo not shown) ?
OUT: > 8.00

IN: Quick one: pIC50 of CCN1C(=O)N=C(Nc2cc(C)c(C)cc2C)N2C1=NCC2c1ccc(F)cc1 (stereo not shown) ?
OUT: 7.00 to 8.00

IN: Quick one: pIC50 of COc1cc(NC2=NC(=O)N(C)C3=NCC(c4ccc(F)c(F)c4)N23)c(C)nc1OC (stereo not shown) ?
OUT: 6.30 to 7.00

IN: Quick one: pIC50 of COc1cc(NC2=NC(=O)N(C)C3=NCC(c4cc(F)c(F)c(F)c4)N23)c(C)cc1C#N (stereo not shown) ?
OUT: 7.00 to 8.00

IN: Quick one: pIC50 of COc1ccc(NC2=NC(=O)N(C)C3=NCC(c4cc(F)cc(F)c4)N23)c(C)c1 (stereo not shown) ?
OUT: 7.00 to 8.00

IN: Quick one: pIC50 of CCc1nc(OC)ccc1Nc1nc(=O)cc2n1C(c1cc(F)cc(F)c1)CC2 (stereo not shown) ?
OUT: 7.00 to 8.00

IN: Quick one: pIC50 of Cc1nc2cc(C)c(Nc3nc(=O)cc4n3C(c3ccccc3)CN4C)cc2s1 (stereo not shown) ?
OUT: 7.00 to 8.00
